# test protocol: collision cross section of modified peptide (TIMS, N2, iRT-aligned); higher = larger / more extended gas-phase ion
# study conditions: charge state: 2; modification: Butyryl
assay metric: collision cross section (Å²)
Response body: numeric value in Å², unit text excluded.

Worked set:
{"chain sequence": "GETASKLQSEISR [_GETASK(Butyryl)LQSEISR_]", "collision cross section / Å²": 390.84}
{"chain sequence": "SLFFGGKGAPLQR [_SLFFGGK(Butyryl)GAPLQR_]", "collision cross section / Å²": 406.8}
{"chain sequence": "PGGEGPQCEKTTDVK [_PGGEGPQCEK(Butyryl)TTDVK_]", "collision cross section / Å²": 421.37}
{"chain sequence": "LGSPSGKTGTCR [_LGSPSGK(Butyryl)TGTCR_]", "collision cross section / Å²": 373.24}
{"chain sequence": "PSVSTKLISK [_PSVSTK(Butyryl)LISK_]", "collision cross section / Å²": 357.77}

Record request: collision cross section value, item LLEEEDSKLK [_LLEEEDSK(Butyryl)LK_] 385.99

Record request: collision cross section value, item LLIVSTTPYSEKDTK [_LLIVSTTPYSEK(Butyryl)DTK_] 459.06

Record request: collision cross section value, item DKALPLEAEVAPVK [_DK(Butyryl)ALPLEAEVAPVK_] 418.05

Record request: collision cross section value, item DVNAAIAAIKTK [_DVNAAIAAIK(Butyryl)TK_] 406.92

Record request: collision cross section value, item IVSGKDYNVTANSK [_IVSGK(Butyryl)DYNVTANSK_] 419.09

Record request: collision cross section value, item PSVGSQSNQAGQGKR [_PSVGSQSNQAGQGK(Butyryl)R_] 416.92

Record request: collision cross section value, item DTGEKLTVAENEAETK [_DTGEK(Butyryl)LTVAENEAETK_] 448.65

Record request: collision cross section value, item AGQKLIDVNHYAK [_AGQK(Butyryl)LIDVNHYAK_] 434.25

Record request: collision cross section value, item TFGKAAGPSLSHTSGGTQSK [_TFGK(Butyryl)AAGPSLSHTSGGTQSK_] 496.92

Record request: collision cross section value, item LEKTIDDLEEK [_LEK(Butyryl)TIDDLEEK_] 409.44

Record request: collision cross section value, item LQAAYAGDKADDIQK [_LQAAYAGDK(Butyryl)ADDIQK_] 436.77

---

# test protocol: collision cross section of modified peptide (TIMS, N2, iRT-aligned); higher = larger / more extended gas-phase ion
# study conditions: charge state: 3; modification: Dimethyl (K)
This listing pairs sequences with measured collision cross section.
Response body: numeric value in Å², unit text excluded.

Worked set:
{"chain sequence": "LEQVEKELLR [_LEQVEK(Dimethyl (K))ELLR_]", "unit info": "Å²", "collision cross section": 444.88}
{"chain sequence": "DKALPLEAEVAPVK [_DK(Dimethyl (K))ALPLEAEVAPVK_]", "unit info": "Å²", "collision cross section": 502.53}
{"chain sequence": "TVSKVDDFLANEAK [_TVSK(Dimethyl (K))VDDFLANEAK_]", "unit info": "Å²", "collision cross section": 482.42}
{"chain sequence": "TLQKQSVVYGGK [_TLQK(Dimethyl (K))QSVVYGGK_]", "unit info": "Å²", "collision cross section": 459.07}
{"chain sequence": "LQLEIDQKK [_LQLEIDQK(Dimethyl (K))K_]", "unit info": "Å²", "collision cross section": 427.16}

Record request: collision cross section value, item VTLEVGKVIQQGR [_VTLEVGK(Dimethyl (K))VIQQGR_] 464.75

Record request: collision cross section value, item YIEIYVQKVNPSR [_YIEIYVQK(Dimethyl (K))VNPSR_] 503.81

Record request: collision cross section value, item TLDEILQEKK [_TLDEILQEK(Dimethyl (K))K_] 430.63

Record request: collision cross section value, item ASNAAVKLAESK [_ASNAAVK(Dimethyl (K))LAESK_] 452.98

Record request: collision cross section value, item LEKTIDDLEEK [_LEK(Dimethyl (K))TIDDLEEK_] 461.19

Record request: collision cross section value, item GSLEKGSPEDK [_GSLEK(Dimethyl (K))GSPEDK_] 433.68

---

# test protocol: collision cross section of modified peptide (TIMS, N2, iRT-aligned); higher = larger / more extended gas-phase ion
# study conditions: charge state: 3; modification: GlyGly (K)
assay metric: collision cross section (Å²)
Response body: numeric value in Å², unit text excluded.

{"chain sequence": "IVSGKDYNVTANSK [_IVSGK(GlyGly (K))DYNVTANSK_]", "unit info": "Å²", "observed": 476.53}

Record request: collision cross section value, item PSVSTKLISK [_PSVSTK(GlyGly (K))LISK_] 434.33

Record request: collision cross section value, item IVFSGNLFQHQEDSKK [_IVFSGNLFQHQEDSK(GlyGly (K))K_] 544.77

Record request: collision cross section value, item GFCFITYTDEEPVKK [_GFCFITYTDEEPVK(GlyGly (K))K_] 525.77

Record request: collision cross section value, item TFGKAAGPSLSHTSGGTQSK [_TFGK(GlyGly (K))AAGPSLSHTSGGTQSK_] 526.57

---

# test protocol: collision cross section of modified peptide (TIMS, N2, iRT-aligned); higher = larger / more extended gas-phase ion
# study conditions: charge state: 2; modification: hydroxyisobutyryl
This listing pairs sequences with measured collision cross section.
Response body: numeric value in Å², unit text excluded.

{"chain sequence": "IHNAENIQPGEQKYEYK [_IHNAENIQPGEQK(hydroxyisobutyryl)YEYK_]", "unit info": "Å²", "collision cross section": 491.39}
{"chain sequence": "TEVLSPNSKVESK [_TEVLSPNSK(hydroxyisobutyryl)VESK_]", "unit info": "Å²", "collision cross section": 419.54}

Record request: collision cross section value, item VNALKNLQVK [_VNALK(hydroxyisobutyryl)NLQVK_] 374.85

Record request: collision cross section value, item DTGEKLTVAENEAETK [_DTGEK(hydroxyisobutyryl)LTVAENEAETK_] 449.65

Record request: collision cross section value, item IVSGKDYNVTANSK [_IVSGK(hydroxyisobutyryl)DYNVTANSK_] 417.55

Record request: collision cross section value, item IPQEKCILQTDVK [_IPQEK(hydroxyisobutyryl)CILQTDVK_] 438.91

---

# test protocol: collision cross section of modified peptide (TIMS, N2, iRT-aligned); higher = larger / more extended gas-phase ion
# study conditions: charge state: 2; modification: Hydroxyproline
assay metric: collision cross section (Å²)
Response body: numeric value in Å², unit text excluded.

{"substance": "GEPGQGLRGLQGPPGK [_GEPGQGLRGLQGPP(Hydroxyproline)GK_]", "collision cross section, Å²": 408.26}
{"substance": "GHPGPPGPPGEQGLPGLAGK [_GHPGPPGPP(Hydroxyproline)GEQGLPGLAGK_]", "collision cross section, Å²": 440.72}
{"substance": "GEKGNPGVGTQGPR [_GEKGNP(Hydroxyproline)GVGTQGPR_]", "collision cross section, Å²": 371.11}

Record request: collision cross section value, item GFPGAPGLPGLK [_GFPGAP(Hydroxyproline)GLPGLK_] 358.41

Record request: collision cross section value, item PGPQPSAETTR [_PGP(Hydroxyproline)QPSAETTR_] 345.87

Record request: collision cross section value, item GLPGPPGPQGESR [_GLP(Hydroxyproline)GPPGPQGESR_] 363.77

---

# test protocol: collision cross section of modified peptide (TIMS, N2, iRT-aligned); higher = larger / more extended gas-phase ion
# study conditions: charge state: 3; modification: Citrullination (R)
This listing pairs sequences with measured collision cross section.
Response body: numeric value in Å², unit text excluded.

Worked set:
{"chain sequence": "GFLQPPPLRQPR [_GFLQPPPLR(Citrullination (R))QPR_]", "observed": 460.68}
{"chain sequence": "YSSSSIPEPFGSRGSPR [_YSSSSIPEPFGSR(Citrullination (R))GSPR_]", "observed": 523.88}
{"chain sequence": "AAYQAAIRGVGSAQSR [_AAYQAAIR(Citrullination (R))GVGSAQSR_]", "observed": 501.27}
{"chain sequence": "LGTTPSVYGGAGGRGIR [_LGTTPSVYGGAGGR(Citrullination (R))GIR_]", "observed": 500.66}

# ---- query sequence ----
Record request: collision cross section value, item GVPRGVHLGSQGLQR [_GVPR(Citrullination (R))GVHLGSQGLQR_] 482.18

---

This listing pairs sequences with measured collision cross section.
# test protocol: collision cross section of modified peptide (TIMS, N2, iRT-aligned); higher = larger / more extended gas-phase ion
# study conditions: charge state: 3; modification: Methyl (K)
Response body: numeric value in Å², unit text excluded.

Worked set:
{"chain sequence": "ASDTSSETVFGKR [_ASDTSSETVFGK(Methyl (K))R_]", "assay metric": "collision cross section", "unit info": "Å²", "observed": 477.14}
{"chain sequence": "DSINFLDHINGKK [_DSINFLDHINGK(Methyl (K))K_]", "assay metric": "collision cross section", "unit info": "Å²", "observed": 461.65}
{"chain sequence": "VDIDVPDVNIEGPDAKLK [_VDIDVPDVNIEGPDAK(Methyl (K))LK_]", "assay metric": "collision cross section", "unit info": "Å²", "observed": 489.73}
{"chain sequence": "GSLEKGSPEDK [_GSLEK(Methyl (K))GSPEDK_]", "assay metric": "collision cross section", "unit info": "Å²", "observed": 434.75}
{"chain sequence": "PANEKATDDYHYEK [_PANEK(Methyl (K))ATDDYHYEK_]", "assay metric": "collision cross section", "unit info": "Å²", "observed": 492.44}

Record request: collision cross section value, item TEVLSPNSKVESK [_TEVLSPNSK(Methyl (K))VESK_] 437.62

Record request: collision cross section value, item YIEIYVQKVNPSR [_YIEIYVQK(Methyl (K))VNPSR_] 505.56
